Target: Mitogen-activated protein kinase 7 (Homo sapiens)
Assay: Gal4-ERK5 driven luciferase induction – cell-based, HTS, primary screen (AID 1508626);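 further: luciferase driven by Gal4-ERK5 fusion binding five Gal4 sites before minimal TATA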
Conditions: HeLa Gal4-ERK5 transactivation, 18 h, at 5 µM
Activity calls are given as the source filed them.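 How the source made its calls: active means luciferase signal above three times the same-plate solvent-only control wells; inactive means the rest.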
Response enum: 1 (yes) (active), 0 (no) (inactive)

Check out these entries, answers already filled in.
Compound: COc1cc(-c2cc(=O)c3c(O)c(OC)c(OC)c(OC)c3o2)cc(OC)c1OC
Target: Mitogen-activated protein kinase 7 (Homo sapiens)
Qualitative Label: 0 (no)
--
Compound: NC(=O)CCCCC(S)CCS (configuration not stated)
Target: Mitogen-activated protein kinase 7 (Homo sapiens)
Qualitative Label: 0 (no)
--
Compound: O=c1c(O)c(-c2ccc(O)c(O)c2)oc2c(O[C@@H]3O[C@H](CO)[C@@H](O)[C@H](O)[C@H]3O)c(O)cc(O)c12
Target: Mitogen-activated protein kinase 7 (Homo sapiens)
Qualitative Label: 0 (no)
--
Compound: CC(=O)OCC(=O)[C@@]1(O)[C@@H](C)C[C@H]2[C@@H]3CCC4=CC(=O)C=C[C@]4(C)[C@@]3(F)[C@@H](O)C[C@@]21C
Target: Mitogen-activated protein kinase 7 (Homo sapiens)
Qualitative Label: 0 (no)
--
Compound: CC(=O)OCC(=O)[C@H]1CC[C@H]2[C@@H]3CC=C4C[C@@H](O)CC[C@]4(C)[C@H]3CC[C@]12C
Target: Mitogen-activated protein kinase 7 (Homo sapiens)
Qualitative Label: 1 (yes)

Tell me the assay call for CO/N=C1\C[C@]2(C[C@@H]3C[C@@H](C/C=C(\C)C[C@@H](C)/C=C/C=C4\CO[C@@H]5[C@H](O)C(C)=C[C@@H](C(=O)O3)[C@]45O)O2)O[C@H](/C(C)=C/C(C)C)[C@H]1C please.
0 (no)

Tell me the assay call for CC(=O)[C@H]1CC[C@H]2[C@@H]3CC=C4C[C@@H](OC(=O)CCC(=O)O)CC[C@]4(C)[C@H]3CC[C@]12C please.
0 (no)
